Target: Rat M4 (Rattus norvegicus, UniProt P08485)
Construct: expressed in transfected cells; host or cells: CHO-K1 (ATCC), stably expressing M4 and Gqi5
Sequence (P08485 1-478): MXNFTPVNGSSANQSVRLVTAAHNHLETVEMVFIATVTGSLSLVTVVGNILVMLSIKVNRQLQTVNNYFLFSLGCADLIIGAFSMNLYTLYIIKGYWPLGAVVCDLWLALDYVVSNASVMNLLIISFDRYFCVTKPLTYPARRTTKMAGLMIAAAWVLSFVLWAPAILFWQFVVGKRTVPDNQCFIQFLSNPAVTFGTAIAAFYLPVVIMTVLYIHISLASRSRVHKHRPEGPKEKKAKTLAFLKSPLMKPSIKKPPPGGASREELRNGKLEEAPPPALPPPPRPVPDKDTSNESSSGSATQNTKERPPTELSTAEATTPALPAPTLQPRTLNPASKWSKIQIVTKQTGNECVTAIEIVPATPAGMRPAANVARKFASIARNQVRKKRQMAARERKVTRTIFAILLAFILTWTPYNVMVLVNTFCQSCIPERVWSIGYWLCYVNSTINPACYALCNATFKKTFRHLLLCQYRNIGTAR
Assay: mAChR M4 cell-based functional calcium flux assay (rat M4/Gqi5/CHO cells)
Conditions: % ACh maximum at 30 μM
The following molecules are shown together with reported Emin (rat M4) values.

>  <molecule>
Cc1nn(C)cc1-c1ccc(NCC2CC23CCN(Cc2ncccc2C(F)(F)F)CC3)nn1 (centres unmarked)

>  <Emin (rat M4) (%)>
19.9

$$$$
>  <molecule>
CC(=O)Nc1ccc(-c2ccc(NC[C@@H]3CC34CCN(CC35CC6CC(CC(C6)C3)C5)CC4)nn2)cc1

>  <Emin (rat M4) (%)>
3

$$$$
>  <molecule>
CC(=O)Nc1ccc(-c2ccc(NC[C@H]3CC34CCN(CC3CCOCC3)CC4)nn2)cc1

>  <Emin (rat M4) (%)>
28

$$$$
>  <molecule>
CCCN1CCC2(CC1)CC2CNc1ccc(-c2cn(C)nc2C)nn1 (centres unmarked)

>  <Emin (rat M4) (%)>
53.6

$$$$
>  <molecule>
Cc1nn(C)cc1-c1ccc(NCC2CC23CCN(CC24CC5CC(CC(C5)C2)C4)CC3)nn1 (centres unmarked)

>  <Emin (rat M4) (%)>
3.84

$$$$
>  <molecule>
CC(C)(C)CCN1CCC2(CC1)CC2CNc1ccc(-c2ccc3ccccc3c2)nn1 (centres unmarked)

>  <Emin (rat M4) (%)>
2.90

$$$$
>  <molecule>
CC(C)(C)CCN1CCC2(CC1)CC2CNc1ccc(-c2cccc(F)c2)nn1 (centres unmarked)

>  <Emin (rat M4) (%)>
3.07

$$$$
>  <molecule>
CC(C)(C)CCN1CCC2(CC1)CC2CNc1ccc(N2CCCC2)nn1 (centres unmarked)

>  <Emin (rat M4) (%)>
4

$$$$
>  <molecule>
CC(=O)Nc1ccc(-c2ccc(NC[C@H]3CC34CCN(CCC(C)(C)C)CC4)nn2)cc1

>  <Emin (rat M4) (%)>
4

$$$$
>  <molecule>
CC(C)(C)CCN1CCC2(CC1)CC2CNc1ccc(N2CCOCC2)nn1 (centres unmarked)

>  <Emin (rat M4) (%)>
5

$$$$
>  <molecule>
Cc1nn(C)cc1-c1ccc(NCC2CC23CCN(CC2CC4C=CC2C4)CC3)nc1 (centres unmarked)

>  <Emin (rat M4) (%)>
3.96

$$$$
>  <molecule>
Fc1ccc(Cl)c(-c2ccc(NC[C@@H]3CC34CCN(CC35CC6CC(CC(C6)C3)C5)CC4)nn2)c1

>  <Emin (rat M4) (%)>
3

$$$$
>  <molecule>
Fc1ccc(Cl)c(-c2ccc(NCC3CC34CCN(CC3CC5C=CC3C5)CC4)nc2)c1 (centres unmarked)

>  <Emin (rat M4) (%)>
4.48

$$$$
>  <molecule>
Cc1nn(C)cc1-c1ccc(NCC2CC23CCN(CC2CCCOC2)CC3)nn1 (centres unmarked)

>  <Emin (rat M4) (%)>
12.3

$$$$
>  <molecule>
CC(C)(C)CCN1CCC2(CC1)CC2CNc1ccc(-c2ccc3ncccc3c2)nn1 (centres unmarked)

>  <Emin (rat M4) (%)>
3.33

$$$$
>  <molecule>
Fc1ccc(Cl)c(-c2ccc(NC[C@H]3CC34CCN(CC3CCCCC3)CC4)nn2)c1

>  <Emin (rat M4) (%)>
4.36

$$$$
>  <molecule>
CC(=O)Nc1ccc(-c2ccc(NC[C@@H]3CC34CCN(Cc3ncccc3C)CC4)nn2)cc1

>  <Emin (rat M4) (%)>
12

$$$$
